Experiment: Antioxidant activity in Sprague-Dawley rat Cerebral cortex neuron assessed as total antioxidant capacity by measuring trolox equivalents at 1 uM after 24 hrs
Assay type: functional
MEASUREMENT_TYPE: TAC (mmol/L)
Respond numerically; units are mmol/L and should not be typed.

Fill in: TAC of O=C(CCCCC1CCSS1)N1CCN(Cc2ccccc2)CC1 (centres undefined) is ___ 11.1

Also, O=C(CCCC[C@@H]1CCSS1)OC1CCN(Cc2ccccc2)CC1 please. 10.7

Also, O=C(CCCCC1CCSS1)OC1CCN(Cc2ccc(F)cc2)CC1 (centres undefined) please. 11.2

Also, O=C(O)CCCC[C@@H]1CCSS1 please. 10.5

From: ChEMBL document CHEMBL4715728
